assay: Double-blind randomized crossover pharmacokinetic study, single oral 900 μg vitamin D3 or 25(OH)D3; type: in vivo, human; settings: both sexes, human, serum, po, 900 ug, healthy participants (N = 10); single oral 900 μg; mean ± SEM; read-out: T1/2 (elimination half-life) (converted)
readout name: half-life (days)
Provide the reading as a plain figure in days.

-- ask Value lookup for half-life; key = C=C1CC[C@H](O)C/C1=C/C=C1\CCC[C@]2(C)[C@@H]([C@H](C)CCCC(C)(C)O)CC[C@@H]12 [25-hydroxyvitamin D3]
-- reply 2.52

---

test: Double-blind randomized crossover pharmacokinetic study, single oral 900 μg vitamin D3 or 25(OH)D3; format: in vivo, human; details: both sexes, human, serum, po, 900 μg, patients with fat malabsorption (N = 6); single oral 900 μg; mean ± SEM; read-out: Ctrough (trough level at day 14)
readout name: concentration at 14 days

-- ask Value lookup for concentration at 14 days; key = C=C1CC[C@H](O)C/C1=C/C=C1\CCC[C@]2(C)[C@@H]([C@H](C)CCCC(C)(C)O)CC[C@@H]12 [25-hydroxyvitamin D3]
-- reply 6.7 ng/mL

---

Assay: Double-blind randomized crossover pharmacokinetic study, single oral 900 μg vitamin D3 or 25(OH)D3
Format: in vivo, human
Settings: both sexes, human, in vivo, po, 900 ug, healthy participants (N = 10); single oral 900 μg; mean ± SEM; read-out: T1/2 (elimination half-life) (converted)
Experimental: The conclusions as presented herein are based on the following experiments: In a double-blinded cross-over study single high dosages (900 μg total in two soft gel capsules containing 450 μg) of either vitamin D3 or 25(OH)D3 were administered to vitamin D-deficient volunteers including healthy controls as well as subjects with a history of malabsorption. At the outset, the BMI was determined. […] All the samples were analyzed for their contents in vitamin D3 per se as well as 25(OH)D3. […]
readout name: half-life (h)
Provide the reading as a plain figure in h.

-- ask Value lookup for half-life; key = C=C1CC[C@H](O)C/C1=C/C=C1\CCC[C@]2(C)[C@@H]([C@H](C)CCCC(C)C)CC[C@@H]12 [vitamin D3, cholecalciferol]
-- reply 31.4

---

Experiment: Double-blind randomized crossover pharmacokinetic study, single oral 900 μg vitamin D3 or 25(OH)D3
Assay type: in vivo, human
Details: both sexes, human, in vivo, po, 900 μg, healthy participants (N = 10); single oral 900 μg; mean ± SEM; read-out: Ctrough (trough level at day 14)
Method: The conclusions as presented herein are based on the following experiments: In a double-blinded cross-over study single high dosages (900 μg total in two soft gel capsules containing 450 μg) of either vitamin D3 or 25(OH)D3 were administered to vitamin D-deficient volunteers including healthy controls as well as subjects with a history of malabsorption. At the outset, the BMI was determined. […] All the samples were analyzed for their contents in vitamin D3 per se as well as 25(OH)D3. […]
readout name: concentration at 14 days

-- ask Value lookup for concentration at 14 days; key = C=C1CC[C@H](O)C/C1=C/C=C1\CCC[C@]2(C)[C@@H]([C@H](C)CCCC(C)C)CC[C@@H]12
-- reply 0.3 ng/mL

---

assay: Double-blind randomized crossover pharmacokinetic study, single oral 900 μg vitamin D3 or 25(OH)D3; assay type: in vivo, human; settings: both sexes, human, in vivo, po, 900 ug, patients with fat malabsorption (N = 6); single oral 900 μg; mean ± SEM; read-out: T1/2 (elimination half-life) (converted)
readout name: half-life
Note to self: number, then unit, no commentary.

-- ask Value lookup for half-life; key = C=C1CC[C@H](O)C/C1=C/C=C1\CCC[C@]2(C)[C@@H]([C@H](C)CCCC(C)C)CC[C@@H]12 [vitamin D3, cholecalciferol]
-- reply 28.7 h
